Items are presented alongside their recorded damage to plant (100=total damage to plant; 0=no damage to plant).
test system: Abuthilon theophrasti (ABUTH); test: Herbicidal glasshouse test, post-emergence; format: in vivo; details: POST Application, 250 g/ha, evaluated after 13 days
Write no unit; give the number alone.

// solved cases for damage to plant (100=total damage to plant; 0=no damage to plant) follow
1) Cc1ccccc1-n1c(=O)c(C(=O)C2C(=O)CCCC2=O)cc2cc(F)cnc21; 80
2) COc1ccccc1-n1c(=O)c(C(=O)C2C(=O)CCCC2=O)cc2cc(F)cnc21; 80
3) O=C1CCCC(=O)C1C(=O)c1cc2cc(F)cnc2n(CC(F)F)c1=O; 80
4) O=C1CCCC(=O)C1C(=O)c1cc2cc(F)cnc2n(-c2cccc(Cl)c2)c1=O; 80
5) O=C1CCCC(=O)C1C(=O)c1cc2cc(F)cnc2n(-c2ccccc2C(F)(F)F)c1=O; 80

For record COc1ccc(Cn2c(=O)c(C(=O)C3C(=O)CCCC3=O)cc3cc(F)cnc32)cc1 the listed damage to plant (100=total damage to plant; 0=no damage to plant) is 70

// sample COc1ccc(-n2c(=O)c(C(=O)C3C(=O)CCCC3=O)cc3cc(F)cnc32)cc1 , its damage to plant (100=total damage to plant; 0=no damage to plant) was 80

Input O=C1CCCC(=O)C1C(=O)c1cc2cc(F)cnc2n(-c2ccccc2Cl)c1=O . Output damage to plant (100=total damage to plant; 0=no damage to plant): 80

Record O=C1CCCC(=O)C1C(=O)c1cc2cc(F)cnc2n(-c2ccc(F)cc2F)c1=O , field damage to plant (100=total damage to plant; 0=no damage to plant): 80

The molecule listed as O=C1CCCC(=O)C1C(=O)c1cc2cc(F)cnc2n(-c2cc(Cl)cc(Cl)c2)c1=O shows damage to plant (100=total damage to plant; 0=no damage to plant) equal to 80

The reported value for Cc1ccc(-n2c(=O)c(C(=O)C3C(=O)CCCC3=O)cc3cc(F)cnc32)cc1 in terms of damage to plant (100=total damage to plant; 0=no damage to plant) is 90
